// data source = patent US20260070902A1

Target: human CCR6 (Homo sapiens, UniProt P51684)
Assay: Human CCR6-CRE reporter assay
Assay type: cell-based
Design: The second construct contained the open reading frame of human CCR6 in the pUNO1 backbone; host or cells: 293FT cells
Conditions: relative -Log IC50; 293FT cells transfected with human CCR6 and CRE-luciferase reporter; 6 μM Forskolin, 6 nM CCL20; 5 h
Method: Human CCR6-CRE Reporter Assay 293FT cells were transfected with 2 constructs using TransIT-293 (Mirus). […] The second construct contained the open reading frame of human CCR6 in the pUNO1 backbone under the control of an enhanced CMV promoter (InVivoGen). […] Luciferase activity was determined by addition of 24 μl of a 2.5× diluted BriteLite luciferase solution (Perkin Elmer), followed by luminescence measurement using a VICTOR Plate reader (Perkin Elmer). […]
quantity: pIC50
The value called pIC50 is obtained by taking minus log10 of the concentration in mol/L.

Query :: Record request: pIC50 value, item `NC(=O)c1nnc2ccc(-c3ccc(S(=O)(=O)[C@H]4CC[C@H](Nc5ccc(S(F)(F)(F)(F)F)cc5)CC4)cc3)cn12`
Result :: 6.60

Query :: Query `O=C1NCCn2cc(-c3ccc(S(=O)(=O)[C@H]4CC[C@H](Nc5ccc(S(F)(F)(F)(F)F)cc5)CC4)cc3)cc21` next
Result :: 6.80

Query :: Query `Cc1cnc2ccc(-c3ccc(S(=O)(=O)N4CCC(Nc5ccc(S(F)(F)(F)(F)F)cc5)CC4)nc3)cn12` next
Result :: 5.90

Query :: Query `CC(C)c1nnc2ccc(-c3ccc(S(=O)(=O)N4CCC(Nc5cccc(S(F)(F)(F)(F)F)c5)CC4)cc3)cn12` next
Result :: 7.30

Query :: Query `CC(C)c1nnc2ccc(-c3ccc(S(=O)(=O)N4CCC(Nc5ccc(S(F)(F)(F)(F)F)cc5)CC4)cc3)cn12` next
Result :: 7.50

***
Query :: Record request: pIC50 value, item `O=S(=O)(c1ccc(-c2ccc3nnc(C4CNC4)n3c2)cc1)[C@H]1CC[C@H](Nc2ccc(S(F)(F)(F)(F)F)cc2)CC1`
Result :: 6.60

---

Molecular target: human CCR6 (Homo sapiens, UniProt P51684)
Sequence (P51684 1-374): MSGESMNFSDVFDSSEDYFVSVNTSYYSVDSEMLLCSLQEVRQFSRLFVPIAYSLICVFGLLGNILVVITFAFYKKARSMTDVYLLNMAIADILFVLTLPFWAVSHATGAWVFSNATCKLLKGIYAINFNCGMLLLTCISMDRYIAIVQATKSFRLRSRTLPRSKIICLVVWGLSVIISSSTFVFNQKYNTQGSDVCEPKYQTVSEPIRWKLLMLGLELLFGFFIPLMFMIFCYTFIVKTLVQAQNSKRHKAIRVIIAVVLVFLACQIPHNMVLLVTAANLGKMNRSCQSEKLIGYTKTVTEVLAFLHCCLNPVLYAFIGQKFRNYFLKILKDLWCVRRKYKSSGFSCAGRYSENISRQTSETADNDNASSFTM
Assay: CHO-K1 CCR6 chemotaxis assay towards CCL20
Format: cell-based
Conditions: relative -Log IC50; CHO-K1 cells overexpressing human CCR6; migration towards 100 ng/ml CCL20; 4 h
quantity: pIC50
The value called pIC50 is obtained by taking minus log10 of the concentration in mol/L.

Query :: Record request: pIC50 value, item `CC(C)c1nnc2ccc(-c3ccc(S(=O)(=O)N4CCC(Nc5ccc(S(F)(F)(F)(F)F)cc5)CC4)cc3)cn12`
Result :: 8.30

Query :: Query `Cc1cn2cc(-c3ccc(S(=O)(=O)[C@H]4CC[C@H](Nc5ccc(S(F)(F)(F)(F)F)cc5)CC4)cc3)ncc2n1` next
Result :: 6.50

For the next question, use this compound.
Query :: Record request: pIC50 value, item `NC(=O)c1nnc2ccc(-c3ccc(S(=O)(=O)[C@H]4CC[C@H](Nc5ccc(S(F)(F)(F)(F)F)cc5)CC4)cc3)cn12`
Result :: 7.10

---

Target: UniProt P51684
Assay: Human CCR6-CRE reporter assay
Type: cell-based
Design: The second construct contained the open reading frame of human CCR6 in the pUNO1 backbone; host or cells: 293FT cells
Conditions: relative -Log IC50; 293FT cells transfected with human CCR6 and CRE-luciferase reporter; 6 μM Forskolin, 6 nM CCL20; 5 h
# maps each entry to its pIC50
The value called pIC50 is obtained by taking minus log10 of the concentration in mol/L.

Guide cases for pIC50, answers given:
Query :: Under UniProt P51684: pIC50 value of N=S(=O)(c1ccc(-c2cccc(C(N)=O)c2)cc1)[C@H]1CC[C@H](Nc2ccc(S(F)(F)(F)(F)F)cc2)CC1 (stereo partly drawn) ?
Result :: 6.70

Query :: Query `CC(C)c1nnc2ccc(-c3ccc(S(=O)(=O)[C@H]4CC[C@H](Nc5ccc(S(F)(F)(F)(F)F)cn5)CC4)cc3)cn12` next
Result :: 7.20

Query :: Query `CNC(=O)c1cc(-c2ccc(S(=O)(=O)[C@H]3CC[C@H](Nc4ccc(S(F)(F)(F)(F)F)cc4)CC3)cc2)ccn1` next
Result :: 7.40

Query :: Query `O=S(=O)(c1ccc(-c2ccc3nccn3c2)cc1F)N1CCC(Nc2ccc(S(F)(F)(F)(F)F)cc2)CC1` next
Result :: 6.30

Query :: Query `Cc1cc(-c2ccc(S(=O)(=O)[C@H]3CC[C@H](Nc4ccc(S(F)(F)(F)(F)F)cc4)CC3)cc2)cn2c(C(C)C)cnc12` next
Result :: 7.30

For the next question, use this compound.
Query :: Under UniProt P51684: pIC50 value of CNC(=O)c1ccc(-c2ccc(S(=N)(=O)[C@H]3CC[C@H](Nc4ccc(S(F)(F)(F)(F)F)cc4)CC3)cc2)cn1 (stereo partly drawn) ?
Result :: 6.50

---

# maps each entry to its pIC50
Biological target: UniProt:P51684
Sequence (P51684 1-374): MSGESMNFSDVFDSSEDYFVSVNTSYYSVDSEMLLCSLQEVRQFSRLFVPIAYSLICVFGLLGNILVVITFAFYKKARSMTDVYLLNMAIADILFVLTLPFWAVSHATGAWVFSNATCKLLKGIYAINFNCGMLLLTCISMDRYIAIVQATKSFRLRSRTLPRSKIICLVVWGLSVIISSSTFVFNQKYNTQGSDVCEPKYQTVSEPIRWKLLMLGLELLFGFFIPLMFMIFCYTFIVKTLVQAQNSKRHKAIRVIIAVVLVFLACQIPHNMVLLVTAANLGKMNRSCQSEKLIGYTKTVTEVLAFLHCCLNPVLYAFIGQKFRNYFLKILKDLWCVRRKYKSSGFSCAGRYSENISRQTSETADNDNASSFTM
Experiment: Human CCR6-CRE reporter assay
Type: cell-based
Design: The second construct contained the open reading frame of human CCR6 in the pUNO1 backbone; host or cells: 293FT cells
Settings: relative -Log IC50; 293FT cells transfected with human CCR6 and CRE-luciferase reporter; 6 μM Forskolin, 6 nM CCL20; 5 h
The value called pIC50 is obtained by taking minus log10 of the concentration in mol/L.

Query :: Record request: pIC50 value, item CN(C)c1cnc2ccc(-c3ccc(S(=O)(=O)[C@H]4CC[C@H](Nc5ccc(S(F)(F)(F)(F)F)cc5)CC4)cc3)cn12 [Example 143]
Result :: 7.00

Query :: Query O=S(=O)(c1ccc(-c2cc3cc[nH]c3cn2)cc1)[C@H]1CC[C@H](Nc2ccc(S(F)(F)(F)(F)F)cc2)CC1 [Example 146] next
Result :: 6.10

***
Query :: Record request: pIC50 value, item CNC(=O)c1ccc(-c2ccc(S(=O)(=O)[C@H]3CC[C@H](Nc4ccc(S(F)(F)(F)(F)F)cc4)CC3)cc2)cn1 [Example 22]
Result :: 7.40

---

Biological target: human CCR6 (Homo sapiens)
Assay: Human CCR6-CRE reporter assay
Format: cell-based
Set-up: The second construct contained the open reading frame of human CCR6 in the pUNO1 backbone; host or cells: 293FT cells
Conditions: relative -Log IC50; 293FT cells transfected with human CCR6 and CRE-luciferase reporter; 6 μM Forskolin, 6 nM CCL20; 5 h
# maps each entry to its IC50
Reply numerically in nM, unit not repeated.

Query :: Record request: IC50 value, item `CC(C)c1nnc2cnc(-c3ccc(S(=O)(=O)[C@H]4CC[C@H](Nc5ccc(S(F)(F)(F)(F)F)cc5)CC4)cc3)cn12`
Result :: 63.1

***
Query :: Record request: IC50 value, item `Cc1n[nH]c2cnc(-c3ccc(S(=O)(=O)[C@H]4CC[C@H](Nc5ccc(S(F)(F)(F)(F)F)cc5)CC4)cc3)cc12`
Result :: 251

Query :: Query N=S(=O)(c1ccc(-c2ccc3c(c2)NC(=O)C3)cc1)[C@H]1CC[C@H](Nc2ccc(S(F)(F)(F)(F)F)cc2)CC1 (stereo partly drawn) next
Result :: 251

Query :: Query `O=C1NC2(CCN(c3ccc(S(=O)(=O)N4CCC(Nc5ccc(S(F)(F)(F)(F)F)cc5)CC4)cc3)CC2)CO1` next
Result :: 126

Query :: Query `O=C1NC(=O)C2(CCN(c3ccc(S(=O)(=O)N4CCC(Nc5ccc(S(F)(F)(F)(F)F)cc5)CC4)cc3)CC2)N1` next
Result :: 39.8

Query :: Query `O=S(=O)(c1ccc(-c2ccc3nccn3c2)cc1)[C@H]1CC[C@H](Nc2ccc(S(F)(F)(F)(F)F)cc2)CC1` next
Result :: 79.4
